- System: wheat, spring (spring wheat, Triticum aestivum)
- Measurement notes: Test D pre-/postemergence: wheat, spring
- Assay type: in vivo
- Condition notes: Postemergence, 31 g ai/ha; scale 0 to 100 (0 no effect, 100 complete control)
Give measured Plant response rating: Wheat, Spring for each item. Keep answers brief.
One number for each entry.

Worked examples follow.
{"columns": ["Chemical structure", "Value"],
 "data": [
  ["COc1nn(-c2ccc(C(F)(F)F)cc2)nc1Cc1ccnc(C(F)(F)F)c1", 25],
  ["CCOc1nn(-c2ccc(F)cc2)nc1Cc1ccnc(C(F)(F)F)c1", 25],
  ["Cc1nn(-c2ccc(C(F)(F)F)cc2)nc1Oc1ccnc(C(F)(F)F)c1", 10],
  ["Cc1nn(-c2ccc(C(F)(F)F)cn2)nc1Cc1cccc(C(F)(F)F)c1", 5]
]}

In: Look up Plant response rating: Wheat, Spring: Cc1nn(-c2ccc(C(F)(F)F)cn2)nc1Oc1ccnc(C(F)(F)F)c1
Out: 5

* * *

Give measured Plant response rating, Wheat for each item. Keep answers brief.
- Tested on: wheat (Triticum aestivum)
- Measurement notes: Test A pre-/postemergence: wheat
- Assay type: in vivo
- Condition notes: Preemergence, 500 g ai/ha; 0 to 100 scale, 0 is no effect, 100 is complete control
One number for each entry.

{"columns": ["Chemical structure", "Value"],
 "data": [
  ["Cc1nn(-c2nc(Cl)ns2)nc1C(=O)c1cccc(C(F)(F)F)c1", 0],
  ["Cc1nn(-c2ccc(F)cc2)nc1Cn1cc(C(F)(F)F)nc1Cl", 0]
]}

For every item below, please supply its Plant response rating, Wheat.
1. Cc1nn(-c2ccc(C(F)(F)F)cc2)nc1Sc1cccc(C(F)(F)F)c1
2. FC(F)Oc1nn(-c2ccc(C(F)(F)F)cc2)nc1Cc1ccnc(C(F)(F)F)c1
3. FC(F)(F)c1ccc(-n2nc(Cl)c(Cc3ccnc(C(F)(F)F)c3)n2)cc1
4. Cc1nn(-c2ccc(C(F)(F)F)cc2)nc1Nc1cccc(C(F)(F)F)c1

Out:
1. 0
2. 80
3. 20
4. 0

For every item below, please supply its Plant response rating, Wheat.
1. Cc1nn(-c2ccc(F)cc2)nc1Oc1nccc(C(F)(F)F)n1
2. Cc1nn(-c2ccc(C(F)(F)F)cc2)nc1Cn1cc(C(F)(F)F)nc1Cl

Out:
[0, 0]

* * *

- System: nightshade (eastern black nightshade, Solanum ptycanthum)
- Measurement notes: Test C pre-/postemergence: nightshade
- Format: in vivo
- Condition notes: Preemergence, 31 g ai/ha; scale of 0 to 100, 0 is no effect, 100 is complete control
- Excerpt: […] Treated plants and controls were maintained in a greenhouse for 13 to 15 days, after which time all species were compared to controls and visually evaluated. […]
Endpoint: Plant response rating, Nightshade
Give bare numbers.

Worked examples follow.
{"columns": ["Chemical structure", "Experimental target", "Plant response rating, Nightshade"],
 "data": [
  ["COc1nn(-c2ccc(C(F)(F)F)cc2)nc1Cc1ccnc(C(F)F)c1", "nightshade (eastern black nightshade, Solanum ptycanthum)", 90],
  ["Cc1nn(-c2ccc(C(F)(F)F)cc2)nc1Oc1ccnc(C(F)(F)F)c1", "nightshade (eastern black nightshade, Solanum ptycanthum)", 95],
  ["COc1nn(-c2ccc(C(F)(F)F)cc2)nc1Cc1ccnc(C(F)(F)F)c1", "nightshade (eastern black nightshade, Solanum ptycanthum)", 25]
]}

Proceed to the following item.
In: Could you share what Plant response rating, Nightshade was measured for Cc1nn(-c2ccc(C(F)(F)F)cn2)nc1Cc1cccc(C(F)(F)F)c1 , tested on nightshade (eastern black nightshade, Solanum ptycanthum)?
Out: 0
